# Test system: human embryonic kidney 293 (HEK293) cells
# measurementProtocol: Toxicity of Nucleoside Triphosphates (NTPs), CYTO TOX-GLO assay
# Assay type: cell-based
# settings: human, 4 h, 210 uM
readout: percent of viable cells

Nc1ncnc2nc[nH]c12 85.97%
Cc1c[nH]c(=O)nc1N 91.54%
O=c1cc[nH]c(=O)[nH]1 89.60%
Nc1cc[nH]c(=O)n1 89.88%
Nc1nc2nc[nH]c2c(=O)[nH]1 90.14%

---

# Test system: human embryonic kidney 293 (HEK293) cells
# measurementProtocol: Toxicity of Nucleoside Triphosphates (NTPs), CYTO TOX-GLO assay
# Type: cell-based
# settings: human, 48 h, 21 uM
percent of viable cells overview
readout: percent of viable cells (%)

O=c1cc[nH]c(=O)[nH]1 89.11
Cc1c[nH]c(=O)nc1N 85.74
Nc1cc[nH]c(=O)n1 87.28
Nc1nc2nc[nH]c2c(=O)[nH]1 88.18
Nc1ncnc2nc[nH]c12 89.94

---

percent of viable cells overview
# Tested on: human embryonic kidney 293 (HEK293) cells
# measurementProtocol: Toxicity of Nucleoside Triphosphates (NTPs), CYTO TOX-GLO assay
# Assay type: cell-based
# settings: human, 24 h, 2.1 nM
readout: percent of viable cells (%)

O=c1cc[nH]c(=O)[nH]1 87.63
Cc1c[nH]c(=O)nc1N 86.35
Nc1nc2nc[nH]c2c(=O)[nH]1 85.41
Nc1cc[nH]c(=O)n1 85.78
Nc1ncnc2nc[nH]c12 86.44

---

# Test system: human embryonic kidney 293 (HEK293) cells
# measurementProtocol: Toxicity of Nucleoside Triphosphates (NTPs), CYTO TOX-GLO assay
# Type: cell-based
# settings: human, 72 h, 2.1 mM
percent of viable cells overview

compound	percent of viable cells [%]
Nc1ncnc2nc[nH]c12 [Adenine]	97.49
O=c1cc[nH]c(=O)[nH]1 [Uracil]	96.82
Nc1cc[nH]c(=O)n1 [Cytosine]	97.15
Cc1c[nH]c(=O)nc1N [5-methyl cytosine]	96.08
Nc1nc2nc[nH]c2c(=O)[nH]1 [Guanine]	97.04

---

# System: human embryonic kidney 293 (HEK293) cells
# measurementProtocol: Toxicity of Nucleoside Triphosphates (NTPs), CYTO TOX-GLO assay
# Assay type: cell-based
# settings: human, 4 h, 210 nM
# Procedure: The cytotoxicity of natural and modified nucleoside triphosphates (NTPs) alone or in combination with other bases, was analyzed in human embryonic kidney 293 (HEK293) cells in the absence of transfection reagent. […] 10 ul of the NTPs outlined in Table 12 were combined with 10 ul of lipid dilution and incubated for 30 minutes to form a complex before 80 ul of the HEK293 cell suspension was added to the NTP complex. […]
readout: percent of viable cells

compound	readout	measurement
O=c1cc[nH]c(=O)[nH]1 [Uracil]	percent of viable cells	91.05%
Nc1ncnc2nc[nH]c12 [Adenine]	percent of viable cells	90.36%
Nc1nc2nc[nH]c2c(=O)[nH]1 [Guanine]	percent of viable cells	90.00%
Nc1cc[nH]c(=O)n1 [Cytosine]	percent of viable cells	88.95%
Cc1c[nH]c(=O)nc1N [5-methyl cytosine]	percent of viable cells	92.31%

---

# System: human embryonic kidney 293 (HEK293) cells
# measurementProtocol: Toxicity of Nucleoside Triphosphates (NTPs), CYTO TOX-GLO assay
# Format: cell-based
# settings: human, 48 h, 2.1 uM
readout: percent of viable cells (%)

O=c1cc[nH]c(=O)[nH]1 89.44
Nc1nc2nc[nH]c2c(=O)[nH]1 87.89
Nc1cc[nH]c(=O)n1 87.73
Cc1c[nH]c(=O)nc1N 86.18
Nc1ncnc2nc[nH]c12 89.80

---

# Tested on: human embryonic kidney 293 (HEK293) cells
# measurementProtocol: Toxicity of Nucleoside Triphosphates (NTPs), CYTO TOX-GLO assay
# Format: cell-based
# settings: human, 24 h, 21 nM
readout: percent of viable cells

O=c1cc[nH]c(=O)[nH]1 87.23%
Cc1c[nH]c(=O)nc1N 86.37%
Nc1cc[nH]c(=O)n1 86.16%
Nc1nc2nc[nH]c2c(=O)[nH]1 85.50%
Nc1ncnc2nc[nH]c12 87.19%

---

# Test system: human embryonic kidney 293 (HEK293) cells
# measurementProtocol: Toxicity of Nucleoside Triphosphates (NTPs), CYTO TOX-GLO assay
# Format: cell-based
# settings: human, 72 h, 21 uM
percent of viable cells overview
readout: percent of viable cells (%)

Cc1c[nH]c(=O)nc1N 92.26
Nc1cc[nH]c(=O)n1 92.22
Nc1nc2nc[nH]c2c(=O)[nH]1 92.39
Nc1ncnc2nc[nH]c12 93.83
O=c1cc[nH]c(=O)[nH]1 93.63

---

# Tested on: human embryonic kidney 293 (HEK293) cells
# measurementProtocol: Toxicity of Nucleoside Triphosphates (NTPs), CYTO TOX-GLO assay
# Type: cell-based
# settings: human, 24 h, 2.1 uM
percent of viable cells overview
readout: percent of viable cells (%)

Cc1c[nH]c(=O)nc1N 85.14
Nc1nc2nc[nH]c2c(=O)[nH]1 86.13
O=c1cc[nH]c(=O)[nH]1 86.75
Nc1ncnc2nc[nH]c12 86.81
Nc1cc[nH]c(=O)n1 86.70

---

# Tested on: human embryonic kidney 293 (HEK293) cells
# measurementProtocol: Toxicity of Nucleoside Triphosphates (NTPs), CYTO TOX-GLO assay
# Format: cell-based
# settings: human, 72 h, 2.1 uM
readout: percent of viable cells (%)

O=c1cc[nH]c(=O)[nH]1 94.60
Nc1cc[nH]c(=O)n1 88.93
Nc1nc2nc[nH]c2c(=O)[nH]1 92.30
Nc1ncnc2nc[nH]c12 94.58
Cc1c[nH]c(=O)nc1N 90.92

---

# System: human embryonic kidney 293 (HEK293) cells
# measurementProtocol: Toxicity of Nucleoside Triphosphates (NTPs), CYTO TOX-GLO assay
# Assay type: cell-based
# settings: human, 48 h, 2.1 mM
One threshold, 90%, splits the recorded percent of viable cells values: lower ones are label 1, equal or higher ones are label 0.

Nc1cc[nH]c(=O)n1 label 0
O=c1cc[nH]c(=O)[nH]1 label 0
Cc1c[nH]c(=O)nc1N label 1
Nc1ncnc2nc[nH]c12 label 0
Nc1nc2nc[nH]c2c(=O)[nH]1 label 0

---

# System: human embryonic kidney 293 (HEK293) cells
# measurementProtocol: Toxicity of Nucleoside Triphosphates (NTPs), CYTO TOX-GLO assay
# Type: cell-based
# settings: human, 24 h, 21 uM
percent of viable cells overview

compound	percent of viable cells [%]
O=c1cc[nH]c(=O)[nH]1 [Uracil]	85.89
Nc1cc[nH]c(=O)n1 [Cytosine]	85.72
Nc1ncnc2nc[nH]c12 [Adenine]	86.86
Nc1nc2nc[nH]c2c(=O)[nH]1 [Guanine]	85.93
Cc1c[nH]c(=O)nc1N [5-methyl cytosine]	84.72

---

# Test system: human embryonic kidney 293 (HEK293) cells
# measurementProtocol: Toxicity of Nucleoside Triphosphates (NTPs), CYTO TOX-GLO assay
# Type: cell-based
# settings: human, 48 h, 2.1 nM
percent of viable cells overview
readout: percent of viable cells (%)

O=c1cc[nH]c(=O)[nH]1 91.28
Nc1nc2nc[nH]c2c(=O)[nH]1 89.57
Cc1c[nH]c(=O)nc1N 88.18
Nc1cc[nH]c(=O)n1 88.99
Nc1ncnc2nc[nH]c12 92.12

---

# Test system: HeLa cells
# measurementProtocol: G-CSF expression in HeLa cells (ELISA)
# Type: cell-based, human
# settings: fully modified G-CSF mRNA transfected in HeLa cells, ELISA
readout: G-CSF protein (pg/ml) HeLa cells

COc1cn([C@@H]2O[C@H](CO)[C@@H](O)[C@H]2O)c(=O)[nH]c1=O 1,715,909 pg/ml
Cc1cn([C@@H]2O[C@H](CO)[C@@H](O)[C@H]2O)c(=O)nc1N 646,591 pg/ml
O=c1[nH]c(=O)n([C@@H]2O[C@H](CO)[C@@H](O)[C@H]2O)cc1Br 186,591 pg/ml
COC(=O)C=Cc1cn([C@@H]2O[C@H](CO)[C@@H](O)[C@H]2O)c(=O)[nH]c1=O 1,364 pg/ml
O=c1ccn([C@@H]2O[C@H](CO)[C@@H](O)[C@H]2O)c(=S)[nH]1 417,273 pg/ml
Cc1cn([C@@H]2O[C@H](CO)[C@@H](O)[C@H]2O)c(=O)[nH]c1=O 347,045 pg/ml
CNc1ncnc2c1ncn2[C@@H]1O[C@H](CO)[C@@H](O)[C@H]1O 1,591 pg/ml
